The values you see were collected from paper PMC8929329.

assayDetails: Permeation experiments on Caco-2 cell monolayer (two-way transport)
Assay type: in vitro ADME, human
testConditions: human, Caco-2; 5 µM; read-out: P app Secretory (BL-AP)
quantityMeasured: Papp B→A at 120 min, 5 µM (×10⁻⁶ cm/s)
Use ×10⁻⁶ cm/s as the unit, but write only the number.

Prompt: Give Papp B→A at 120 min, 5 µM for O=C(O)[C@H]1O[C@@H](Oc2c(O)cc3oc(-c4ccccc4)cc(=O)c3c2O)[C@H](O)[C@@H](O)[C@@H]1O [B6G, baicalein‐6‐O‐β‐D‐glucuronide]
Completion: 6.35

Lab note: next compound to report on.
Prompt: Entry O=C(O)[C@H]1O[C@@H](Oc2cc3oc(-c4ccccc4)cc(=O)c3c(O)c2O)[C@H](O)[C@@H](O)[C@@H]1O [BG, baicalein‐7‐O‐β‐D‐glucuronide] needs its Papp B→A at 120 min, 5 µM filled in; supply it.
Completion: 10.2

---

Test system: BCRP
assayDetails: Permeation experiments on Caco-2 cell monolayer (two-way transport)
Assay type: in vitro ADME, human
testConditions: human, Caco-2, with KO143 10 µM (BCRP inhibitor); 5 + 10 µM KO143 (BCRP inhibitor); read-out: P app Secretory (BL-AP)
Recorded measurements of Papp B→A at 120 min, 5 µM, one per entry
Remember to put the unit after the number in your answer.

Prompt: Using known records, supply Papp B→A at 120 min, 5 µM for O=C(O)[C@H]1O[C@@H](Oc2cc3oc(-c4ccccc4)cc(=O)c3c(O)c2O)[C@H](O)[C@@H](O)[C@@H]1O [BG, baicalein‐7‐O‐β‐D‐glucuronide]
Completion: 7.31 ×10⁻⁶ cm/s

We now examine a further compound.
Prompt: Kindly indicate its recorded Papp B→A at 120 min, 5 µM. Item: O=C(O)[C@H]1O[C@@H](Oc2c(O)cc3oc(-c4ccccc4)cc(=O)c3c2O)[C@H](O)[C@@H](O)[C@@H]1O [B6G, baicalein‐6‐O‐β‐D‐glucuronide]
Completion: 4.77 ×10⁻⁶ cm/s

---

assayDetails: Permeation experiments on Caco-2 cell monolayer (two-way transport)
Assay type: in vitro ADME, human
testConditions: human, Caco-2, BL-AP; baicalein 5 μM; read-out: corrected apparent permeability (Pcorrected)
quantityMeasured: Papp at 120 min, 5 μM (×10⁻⁶ cm/s)
Give the quantity in ×10⁻⁶ cm/s, number only.

Prompt: Using the record for `O=c1cc(-c2ccccc2)oc2cc(O)c(O)c(O)c12` , state its measured Papp at 120 min, 5 μM.
Completion: 120

---

assayDetails: Permeation experiments on Caco-2 cell monolayer (two-way transport)
Assay type: in vitro ADME, human
testConditions: human, Caco-2, AP-BL; baicalein 5 μM; read-out: corrected apparent permeability (Pcorrected)
quantityMeasured: Papp at 120 min, 5 μM (×10⁻⁶ cm/s)
Provide the reading as a plain figure in ×10⁻⁶ cm/s.

Prompt: For O=c1cc(-c2ccccc2)oc2cc(O)c(O)c(O)c12 [B, baicalein] , write its Papp at 120 min, 5 μM.
Completion: 73.2

---

System: P-gp
assayDetails: Permeation experiments on Caco-2 cell monolayer (two-way transport)
Type: in vitro ADME, human
testConditions: human, Caco-2, with verapamil 10 µM; 5 + 10 µM Ver (P-GP inhibitor); read-out: P app Secretory (BL-AP)
quantityMeasured: Papp B→A at 120 min, 5 µM (×10⁻⁶ cm/s)
Dear colleague, please return just the value in ×10⁻⁶ cm/s, with no unit written.

Prompt: Return value of Papp B→A at 120 min, 5 µM for input O=C(O)[C@H]1O[C@@H](Oc2cc3oc(-c4ccccc4)cc(=O)c3c(O)c2O)[C@H](O)[C@@H](O)[C@@H]1O [BG, baicalein‐7‐O‐β‐D‐glucuronide] , no commentary.
Completion: 10.5
